TARGET: Sho1, P40073
Sequence (P40073 287-367): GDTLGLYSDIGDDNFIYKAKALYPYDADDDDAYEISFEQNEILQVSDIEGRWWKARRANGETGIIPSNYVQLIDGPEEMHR
METHOD NOTES: SPOT array
TEST SETTINGS: median of control spots 1148

BINDER | SPOT intensity
TYNRTAFQIPGDQSI | 0
PPLPRAPPVPPATFE | 9
LPMNIQPDLPPRKIM | 29
SSSSTPPTLPPRRIE | 0
SRSKPLPLTPNSKYN | 1030
AATTSTPPLPRRRAT | 38
DHPKGPPPPPPPDEK | 0
SLSRRRFSLPSMPNV | 84
NLKKRPPTAPQRKIS | 229
VAPPPLPNRQLPNLD | 0
LRIKRKPVQTFFEFI | 173
HHNRRKPLEVYFKAT | 43
YLTRPLPSTPNEDSR | 1320
MPAPPPPPPPPPGAF | 0
PHNPSPFFPPPDFND | 0
NSVPIMPTLPPRPYI | 0
MFLISPPASPPPEFD | 0
NENKKLPPAPTVFGL | 927
RFKRHRLEFPFNESE | 41
LKPPIGRPPKFPKSP | 24
PKRRAPPPVPKKPSS | 399
NMLSRPRLAKLPSIR | 38
